FYI, the data here is from paper PMC10044725.

assay: DPPH free radical scavenging assay; details: isolated compounds; half scavenging concentration; read-out: DPPH Assay SC50
quantity.measured: pEC50
Convention used: pEC50 is expressed as -log10 of the molar concentration.

Query: Reported pEC50, compound COc1cc(O)c2c(=O)c(O)c(-c3ccc(O)c(O)c3)oc2c1 : ____
Response: 4.77

Query: Could you do the same for O=c1cc(-c2ccc(O)cc2)oc2cc(O)cc(O)c12 , please?
Response: 5.28

Query: Next up: COC(=O)[C@H]1O[C@@H](Oc2cc(-c3cc(=O)c4c(O)cc(O)cc4o3)ccc2O)[C@H](O)[C@@H](O)[C@@H]1O [Compound 5, vitegnoside]
Response: 5.00

Query: How about O=C(O)c1c[nH]c2ccccc12 ?
Response: 4.91
